# Test system: RAW-Dual
# experiment: NF-kB SEAP reporter activity, fold change vs agonist alone; cytotoxicity flag (confluency mask): not cytotoxic; higher = enhanced NF-kB activity
# measurement-conditions: agonist: ODN 1826 (TLR9) 0.5 ug/mL
In all, about 2,900 compounds were measured (“NF-kB SEAP reporter activity, fold change vs agonist alone”: median about 0.99, highest 2% from about 2.6 on). Only a selection was taken, and the highest values are over-represented in it overall.
# NF-kB SEAP reporter activity per record follows

{"columns": ["compound", "NF-kB SEAP reporter activity"],
 "data": [
  ["O=C(NCCO)c1cccc(-c2cc(Nc3ccc(OC(F)(F)F)cc3)ncn2)c1 (library stock concentration (final ~1000-fold dilution): 10 mM)", 0.796],
  ["COC(=O)C1=C(C)NC(C)=C(C(=O)OCCN2CCN(C(c3ccccc3)c3ccccc3)CC2)C1c1cccc([N+](=O)[O-])c1.Cl.Cl (centres undefined) (library stock concentration (final ~1000-fold dilution): 10 mM)", 0.364],
  ["CC(C)(C)NC(=O)c1cncn1C1CCN(c2ccc(-c3nnc(C(F)(F)F)o3)cn2)CC1 (library stock concentration (final ~1000-fold dilution): 10 mM)", 3.15],
  ["Cc1c[nH]c(-c2cnc(NCCNc3ccc(C#N)cn3)nc2-c2ccc(Cl)cc2Cl)n1 (library stock concentration (final ~1000-fold dilution): 10 mM)", 2.65],
  ["NNC(=O)c1ccncc1 (library stock concentration (final ~1000-fold dilution): 10 mM)", 1.05],
  ["CN(CC(=O)N(Cc1ccc(C2CCCCC2)cc1)c1ccc(C(=O)NO)cc1)S(=O)(=O)c1c(F)c(F)c(F)c(F)c1F (library stock concentration (final ~1000-fold dilution): 10 mM)", 1.53],
  ["CN(C)C(=O)Nc1cccc(-c2ccc(N(C)C)cc2)c1 (library stock concentration (final ~1000-fold dilution): 10 mM)", 1.08],
  ["Cc1c(-c2ccc(C(N)=O)c3[nH]c4cc(C(C)(C)O)ccc4c23)cccc1-n1cnc2ccccc2c1=O (library stock concentration (final ~1000-fold dilution): 10 mM)", 1.1],
  ["COc1cc2ncnc(Nc3ccc(Oc4ccccc4)cc3C)c2cc1OC.Cl (library stock concentration (final ~1000-fold dilution): 10 mM)", 0.422]
]}

These data points were gathered from the supplement of paper PMC10037445.
